The reported numbers originate from paper PMC10527105.

# experimental_target: human serotonin transporter/SLC6A4 (SERT) (Homo sapiens)
# Construct: expressed in transfected cells; host or cells: HEK293
# Sequence (P31645 whole entry): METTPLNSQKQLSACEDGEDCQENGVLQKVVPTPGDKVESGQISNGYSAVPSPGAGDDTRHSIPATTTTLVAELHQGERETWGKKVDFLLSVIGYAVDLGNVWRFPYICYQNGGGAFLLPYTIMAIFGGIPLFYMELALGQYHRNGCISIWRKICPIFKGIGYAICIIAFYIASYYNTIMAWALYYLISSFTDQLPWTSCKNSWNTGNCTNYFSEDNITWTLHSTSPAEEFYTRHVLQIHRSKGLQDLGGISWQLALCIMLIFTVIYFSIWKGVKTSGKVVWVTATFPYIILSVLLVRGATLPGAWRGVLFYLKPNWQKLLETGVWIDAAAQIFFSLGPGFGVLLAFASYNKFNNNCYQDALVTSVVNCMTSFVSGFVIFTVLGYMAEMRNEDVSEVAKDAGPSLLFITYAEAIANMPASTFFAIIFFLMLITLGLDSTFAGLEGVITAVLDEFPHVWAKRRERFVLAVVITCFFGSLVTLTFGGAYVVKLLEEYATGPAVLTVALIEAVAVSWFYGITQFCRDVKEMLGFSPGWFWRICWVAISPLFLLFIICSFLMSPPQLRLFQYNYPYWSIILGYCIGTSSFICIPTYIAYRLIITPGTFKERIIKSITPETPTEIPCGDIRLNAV
# assay_comment: Cellular uptake experiments: [3H]-serotonin reuptake inhibition in transporter-expressing HEK293 cells
# Assay type: cell-based
# run_conditions: Reuptake Inhibition (IC50 ± SE, µM) SERT, cells stably expressing SERT; [3H]-serotonin 1 µM; screening cut-off 50 µM
# Method: Cell culture. Human embryonic kidney (HEK) 293 or SK-N-MC (human neuroblastoma) cells were grown in minimum essential medium with Earle’s salts and L-glutamine, 10% heat-inactivated fetal bovine serum, and 50 mg/L gentamicin. […] Cellular uptake experiments. […] Nonspecific uptake was determined in the presence of 10 µM mazindol (DAT- and NET-cells) or 10 µM clomipramine (SERT-cells). […]
quantity_name: IC50

Req: Which IC50 value is on record for "[O-][S@@+](Cc1cccs1)[C@H](c1ccccc1)c1cccc(Br)c1" ?
Resp: > 50 µM

Req: Fill blank: measured IC50 of the compound [O-][S+](Cc1cccs1)C(c1ccccc1)c1ccccc1I (stereo not drawn) is ____.
Resp: > 50 µM

Req: What IC50 value was documented for this compound, "[O-][S@+](Cc1cccs1)[C@H](c1ccccc1)c1cccc(Br)c1" ?
Resp: 14 µM
